# targetOfAssay: T1, human ADAMTS5 (human, UniProt Q9UNA0 262-622, limits assumed)
# T1 construct: Octet and ELISA used 'recombinant human ADAMTS5'; also called recombinant human ADAMTS5; ADAMTS5 (R&D Systems 2198-AD)
# T1 sequence: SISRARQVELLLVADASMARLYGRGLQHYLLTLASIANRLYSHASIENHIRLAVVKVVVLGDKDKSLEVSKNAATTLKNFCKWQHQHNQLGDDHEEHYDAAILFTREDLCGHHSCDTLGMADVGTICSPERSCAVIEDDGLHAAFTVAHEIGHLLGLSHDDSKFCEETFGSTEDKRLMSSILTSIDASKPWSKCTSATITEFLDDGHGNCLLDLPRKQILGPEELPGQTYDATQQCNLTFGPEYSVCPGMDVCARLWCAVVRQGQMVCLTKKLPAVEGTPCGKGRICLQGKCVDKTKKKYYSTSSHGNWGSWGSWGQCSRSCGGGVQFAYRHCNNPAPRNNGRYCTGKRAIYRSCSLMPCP
# experimentalProtocol: Biacore, mAb from culture supernatant captured on anti-human IgG, ADAMTS5 (R&D 2198-AD) at 64 nM, 1:1 fit
Kd for assorted binders
# value in nM; strip the unit string

BPC1635 (antibody, human IgG1, kappa, V domains shown, Humanized, human gamma 1 / kappa; also called 7B4 H1L0) VH: EVQLVESGGGLVQPGGSLRLSCAASGFTFSDAWMDWVRQAPGKGLEWVAEIRNKANNHARHYAESVKGRFTISRDNAKNSLYLQMNSLRAEDTAVYYCTRTYYYGSSYGYCDVWGQGTLVTVSS VL: DIQMTQSPSSLSASVGDRVTITCRTSENIYSYLAWYQQKPGKAPKLLIYNAKTLAEGVPSRFSGSGSGTDFTLTISSLQPEDFATYYCQHHYGTPWTFGQGTKLEIKR : 1.17
BPC1645 (antibody, human IgG1, kappa, V domains shown, Humanized, human gamma 1 / kappa; also called 7B4 H4L1) VH: EVQLVESGGGLVQPGGSLRLSCAASGFTSSDAWMDWVRQAPGKGLEWVAEIRNKANNHARHYAESVKGRFTISRDDAKNSLYLQMNSLRAEDTAVYYCTRTYYYGSSYGYCDVWGQGTLVTVSS VL: DIQMTQSPSSLSASVGDRVTITCRTSENIYSYLAWYQQKPGKAPKLLVYNAKTLAEGVPSRFSGSGSGTDFTLTISSLQPEDFATYYCQHHYGTPWTFGQGTKLEIKR : 1.04

We next turn to a different binder, shown below.
So what's the measured Kd for this one? BPC1652 (antibody, human IgG1, kappa, V domains shown, Humanized, human gamma 1 / kappa; also called 7B4 H4L2) VH: EVQLVESGGGLVQPGGSLRLSCAASGFTSSDAWMDWVRQAPGKGLEWVAEIRNKANNHARHYAESVKGRFTISRDDAKNSLYLQMNSLRAEDTAVYYCTRTYYYGSSYGYCDVWGQGTLVTVSS VL: DIQMTQSPSSLSASVGDRVTITCRTSENIYSYLAWYQQKPGKAPQLLVYNAKTLAEGVPSRFSGSGSGTDFTLTISSLQPEDFATYYCQHHYGTPWTFGQGTKLEIKR
1.08
